target: Tie2 (Homo sapiens); construct: purchased Millipore (KinaseProfiler Service); assay: KinaseProfiler kinase inhibition assay, Tie2; format: biochemical; conditions: 1 μM compound
Sequence (Q02763 23-1124): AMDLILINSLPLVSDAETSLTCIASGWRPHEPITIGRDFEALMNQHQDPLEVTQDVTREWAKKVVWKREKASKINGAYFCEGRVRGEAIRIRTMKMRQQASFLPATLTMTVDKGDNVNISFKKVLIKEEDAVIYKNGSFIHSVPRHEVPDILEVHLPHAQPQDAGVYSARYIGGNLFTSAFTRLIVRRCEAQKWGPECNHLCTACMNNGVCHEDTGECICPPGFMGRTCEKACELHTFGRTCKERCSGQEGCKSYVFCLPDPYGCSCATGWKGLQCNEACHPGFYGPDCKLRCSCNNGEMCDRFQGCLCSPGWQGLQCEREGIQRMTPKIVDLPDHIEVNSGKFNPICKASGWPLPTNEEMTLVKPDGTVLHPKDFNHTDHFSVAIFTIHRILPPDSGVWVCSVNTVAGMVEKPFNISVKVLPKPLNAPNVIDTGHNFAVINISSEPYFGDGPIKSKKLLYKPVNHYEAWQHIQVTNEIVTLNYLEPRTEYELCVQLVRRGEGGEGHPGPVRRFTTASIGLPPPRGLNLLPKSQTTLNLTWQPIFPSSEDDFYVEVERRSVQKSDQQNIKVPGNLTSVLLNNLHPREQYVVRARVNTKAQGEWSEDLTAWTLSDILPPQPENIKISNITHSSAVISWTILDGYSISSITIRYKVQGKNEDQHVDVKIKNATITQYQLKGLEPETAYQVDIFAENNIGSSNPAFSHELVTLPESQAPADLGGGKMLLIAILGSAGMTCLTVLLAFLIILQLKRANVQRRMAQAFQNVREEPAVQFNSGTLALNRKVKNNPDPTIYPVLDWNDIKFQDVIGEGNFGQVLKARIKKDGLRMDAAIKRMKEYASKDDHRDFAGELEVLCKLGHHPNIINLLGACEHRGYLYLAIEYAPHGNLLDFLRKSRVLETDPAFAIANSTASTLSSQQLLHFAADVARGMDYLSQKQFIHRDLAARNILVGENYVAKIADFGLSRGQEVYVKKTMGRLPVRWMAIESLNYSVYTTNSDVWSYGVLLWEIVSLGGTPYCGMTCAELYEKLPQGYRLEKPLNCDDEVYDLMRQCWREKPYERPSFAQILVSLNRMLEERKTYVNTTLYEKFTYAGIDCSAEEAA
Observation Type: inhibition at 1 µM (%)

Compound	System Name	Unit String	inhibition at 1 µM
CCN1CCN(c2ccc(Nc3ncnc(Oc4ccc5[nH]c(C)cc5c4F)c3C#N)nc2)CC1 [Compound 55]	Tie2 (Homo sapiens)	%	31

A: C/C=C/c1cc(Nc2cc(Oc3ccc4[nH]c(C)cc4c3F)ncn2)n[nH]1 [Example 17]
B: Cc1cc2c(F)c(Oc3ncnc(Nc4ccc(N5CCN(C)CC5)cc4)c3C#N)ccc2[nH]1 [Compound 54]
C: Cc1cc2c(F)c(Oc3ncnc(Nc4ccc(N5CCN(C)CC5)cc4)c3C)ccc2[nH]1 [Compound 40]
D: Cc1cc2c(F)c(Oc3ncnc(Nc4ccc(N5CCNCC5)cc4)c3F)ccc2[nH]1 [Example 28]
Your job: order these 4 records by inhibition at 1 µM, ascending. # format: label list in the order the request specifies
D, C, B, A

---

target: Abl kinase (Homo sapiens, UniProt P00519); construct: purchased Millipore (KinaseProfiler Service); assay: KinaseProfiler kinase inhibition assay, Abl; type: biochemical; settings: 1 μM compound
Sequence (P00519 whole entry): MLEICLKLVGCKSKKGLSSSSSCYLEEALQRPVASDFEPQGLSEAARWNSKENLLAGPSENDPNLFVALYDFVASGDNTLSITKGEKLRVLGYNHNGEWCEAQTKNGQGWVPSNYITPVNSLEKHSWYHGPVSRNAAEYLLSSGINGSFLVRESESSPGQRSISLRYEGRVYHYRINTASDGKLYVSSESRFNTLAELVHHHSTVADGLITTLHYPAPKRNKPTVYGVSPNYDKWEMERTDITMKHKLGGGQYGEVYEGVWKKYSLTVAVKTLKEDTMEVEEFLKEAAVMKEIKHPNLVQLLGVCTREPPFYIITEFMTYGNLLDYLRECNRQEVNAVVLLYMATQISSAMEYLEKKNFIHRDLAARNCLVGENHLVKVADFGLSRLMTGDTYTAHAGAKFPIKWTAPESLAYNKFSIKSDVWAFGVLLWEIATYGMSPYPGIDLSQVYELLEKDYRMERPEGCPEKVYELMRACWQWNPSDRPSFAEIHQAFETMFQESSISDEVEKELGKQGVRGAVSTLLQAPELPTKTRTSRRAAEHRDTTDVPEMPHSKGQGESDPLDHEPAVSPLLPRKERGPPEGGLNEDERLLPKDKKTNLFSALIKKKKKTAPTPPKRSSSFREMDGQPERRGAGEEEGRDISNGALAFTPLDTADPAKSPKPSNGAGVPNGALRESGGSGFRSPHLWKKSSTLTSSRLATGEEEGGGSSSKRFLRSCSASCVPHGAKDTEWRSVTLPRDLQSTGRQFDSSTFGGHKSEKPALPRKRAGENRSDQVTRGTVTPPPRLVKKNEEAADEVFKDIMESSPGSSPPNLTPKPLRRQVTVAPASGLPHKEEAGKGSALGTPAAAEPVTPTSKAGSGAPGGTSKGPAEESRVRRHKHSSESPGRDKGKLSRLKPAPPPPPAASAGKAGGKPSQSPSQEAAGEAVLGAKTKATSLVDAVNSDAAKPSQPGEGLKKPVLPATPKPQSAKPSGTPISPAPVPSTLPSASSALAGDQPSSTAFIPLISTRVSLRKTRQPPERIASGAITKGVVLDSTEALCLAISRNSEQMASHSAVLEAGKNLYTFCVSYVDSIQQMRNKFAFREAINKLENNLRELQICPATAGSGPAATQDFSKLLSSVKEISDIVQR
Observation Type: inhibition at 1 µM (%)

Smiles Structure	Observation Type	Readout Number
Cc1cc2c(F)c(Oc3ncnc(Nc4ccc(N5CCN(C)CC5)cn4)c3N)ccc2[nH]1	inhibition at 1 µM	-6
CCN1CCN(c2ccc(Nc3ncnc(Oc4ccc5[nH]c(C)cc5c4F)c3F)cc2)CC1	inhibition at 1 µM	7
Cc1cc2c(F)c(Oc3ncnc(Nc4ccc(N5CCN(C)CC5)cc4)c3Cl)ccc2[nH]1	inhibition at 1 µM	-15
Cc1cc2c(F)c(Oc3ncnc(Nc4ccc(N5CCN(C)CC5)cc4)c3C#N)ccc2[nH]1	inhibition at 1 µM	3
Cc1cc2c(F)c(Oc3cc(Nc4cc(-c5ccccn5)[nH]n4)ncn3)ccc2[nH]1	inhibition at 1 µM	62

1: Cc1cc2c(F)c(Oc3cc(Nc4cc(-c5ccccc5)[nH]n4)ncn3)ccc2[nH]1
2: Cc1cc2c(F)c(Oc3cc(Nc4ccc(N5CCN(C)CC5)cc4)ncn3)ccc2[nH]1
Hi there, can you help? I need to know whether 1 or 2 has lower measured inhibition at 1 µM. Indicate your choice by writing its label.
1
(1: 23%, 2: 45%)

---

Form field: GI50 (one value per entry).
tested on: AN3_CA; test: CellTiterblue viability, 72 hr, AN3_CA; format: cell-based; settings: Homo sapiens, AN3-CA, AN3_CA cells

Compound	System Name	GI50
CCN1CCN(c2ccc(Nc3ncnc(Oc4ccc5[nH]c(C)cc5c4F)c3F)cc2)CC1 [Example 25]	AN3_CA	> 500 nM
CCN1CCN(c2ccc(Nc3ncnc(Oc4cc(F)c5[nH]c(C)cc5c4F)c3C#N)cc2)CC1 [Compound 60]	AN3_CA	> 500 nM
CCN1CCN(c2ccc(Nc3ncnc(Oc4ccc5[nH]c(C)cc5c4F)c3C#N)nc2)CC1 [Compound 55]	AN3_CA	98 nM

For the compound shown here, COc1c(Nc2ccc(N3CCN(C)CC3)cc2)ncnc1Oc1ccc2[nH]c(C)cc2c1F [Compound 43] , give the reported GI50.
> 500 nM

Query CCN1CCN(c2ccc(Nc3ncnc(Oc4cc(F)c5[nH]c(C)cc5c4F)c3C#N)nc2)CC1 [Compound 61] next
> 500 nM

Query Cc1cc2c(F)c(Oc3cc(Nc4ccc(N5CCN(C)CC5)cc4)ncn3)ccc2[nH]1 [Example 2] next
490 nM

Query Cc1cc2c(F)c(Oc3ncnc(Nc4cc(C5CC5)n[nH]4)c3F)ccc2[nH]1 [Compound 32] next
> 500 nM

Query Cc1cc2c(F)c(Oc3cc(Nc4ccc(N5CCNCC5)cc4)ncn3)cc(F)c2[nH]1 [Compound 51] next
406 nM
